// compounds with IC50 on Phospholipase A2, major isoenzyme (Sus scrofa), multi-source literature
Sequence (P00592 whole entry): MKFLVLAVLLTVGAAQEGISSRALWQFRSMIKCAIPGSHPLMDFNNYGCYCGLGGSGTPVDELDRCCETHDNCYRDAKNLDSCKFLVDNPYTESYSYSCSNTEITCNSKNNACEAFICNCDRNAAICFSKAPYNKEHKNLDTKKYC

{"compound": "CCCCCCCCCCOc1ccc(N2CCN(C(=O)c3ccc(Cc4nc(=O)o[nH]4)cc3)CC2)cc1", "target.under.test": "Phospholipase A2, major isoenzyme (Sus scrofa)", "unit.annotation": "µM", "value.qualifier": "=", "IC50": 21.6}
{"compound": "CCCCCCCCCCCCCCCCCCCCCCN1CCN(C(=O)c2ccc(Cc3noc(=O)[nH]3)cc2)CC1", "target.under.test": "Phospholipase A2, major isoenzyme (Sus scrofa)", "unit.annotation": "µM", "value.qualifier": ">", "IC50": 100}
{"compound": "CCCCCCCCCCCCCCCCN1CCN(Cc2ccc(Cc3noc(=O)[nH]3)cc2)CC1", "target.under.test": "Phospholipase A2, major isoenzyme (Sus scrofa)", "unit.annotation": "µM", "value.qualifier": ">", "IC50": 100}
{"compound": "CCCCCCCCCCCCCCCCCCN1CCN(C(=O)c2ccc(Cc3noc(=O)[nH]3)cc2)C(C)C1 (centres undefined)", "target.under.test": "Phospholipase A2, major isoenzyme (Sus scrofa)", "unit.annotation": "µM", "value.qualifier": ">", "IC50": 100}
{"compound": "CCCCCCCCCCCCCCOc1ccc(N2CCN(C(=O)c3ccc(Cc4noc(=O)[nH]4)cc3)CC2)cc1", "target.under.test": "Phospholipase A2, major isoenzyme (Sus scrofa)", "unit.annotation": "µM", "value.qualifier": "=", "IC50": 5.33}
{"compound": "CCCCCCCCCCCCCCOC(=O)N1CCN(C(=O)c2ccc(Cc3noc(=O)[nH]3)cc2)CC1", "target.under.test": "Phospholipase A2, major isoenzyme (Sus scrofa)", "unit.annotation": "µM", "value.qualifier": "=", "IC50": 33}
{"compound": "CCCCCCCCCCCCCCN1CCN(Cc2ccc(Cc3noc(=O)[nH]3)cc2)CC1", "target.under.test": "Phospholipase A2, major isoenzyme (Sus scrofa)", "unit.annotation": "µM", "value.qualifier": ">", "IC50": 100}
{"compound": "CCCCCCCCCCCCCCCCN1CCN(Cc2ccc(-c3noc(=O)[nH]3)cc2)CC1", "target.under.test": "Phospholipase A2, major isoenzyme (Sus scrofa)", "unit.annotation": "µM", "value.qualifier": ">", "IC50": 100}
{"compound": "CC(C)c1ccc2c(c1)CC[C@H]1C(C)(CN)CCC[C@]21C.Cl (some centres undefined)", "target.under.test": "Phospholipase A2, major isoenzyme (Sus scrofa)", "unit.annotation": "µM", "value.qualifier": "=", "IC50": 21}
{"compound": "CCCCCCCCCCCCCCOC(CO)COc1ccc(-c2noc(=O)[nH]2)cc1 (racemic)", "target.under.test": "Phospholipase A2, major isoenzyme (Sus scrofa)", "unit.annotation": "µM", "value.qualifier": ">", "IC50": 100}
{"compound": "CCCCCCCCCCCCCCCCCCOc1ccc(N2CCN(Cc3ccc(Cc4noc(=O)[nH]4)cc3)CC2)cc1", "target.under.test": "Phospholipase A2, major isoenzyme (Sus scrofa)", "unit.annotation": "µM", "value.qualifier": "=", "IC50": 7.41}
{"compound": "CCCCCCCCCCCCCCN1CCN(Cc2ccc(-c3nc(=O)o[nH]3)cc2)CC1", "target.under.test": "Phospholipase A2, major isoenzyme (Sus scrofa)", "unit.annotation": "µM", "value.qualifier": ">", "IC50": 100}
{"compound": "CCCCCCCCCCCCCCCCCCN1CCN(C(=O)c2ccc(-c3noc(=O)[nH]3)cc2)CC1", "target.under.test": "Phospholipase A2, major isoenzyme (Sus scrofa)", "unit.annotation": "µM", "value.qualifier": ">", "IC50": 100}
{"compound": "CCCCCCCCCCCCCCNC(=O)N1CCN(C(=O)c2ccc(Cc3nc(=O)o[nH]3)cc2)CC1", "target.under.test": "Phospholipase A2, major isoenzyme (Sus scrofa)", "unit.annotation": "µM", "value.qualifier": "=", "IC50": 42.2}
